- measurement-notes: DRUGMATRIX: Purinergic P2X radioligand binding (ligand: [3H] alpha, beta-Methylene-ATP)
- Assay type: cell membranes, Oryctolagus cuniculus, New Zealand albino, Urinary bladder, Membrane
- assay-setup: Not Active = under 50% inhibition at 10 µM
measurement-label: IC50

- substance: "LEAD (II) ACETATE"
  result: "Not Active"
- substance: "LIPOPOLYSACCHARIDE E. COLI O55:B5"
  result: "Not Active"
- substance: "SODIUM NITROPRUSSIDE"
  result: "Not Active"
- substance: "CADMIUM ACETATE"
  result: "Not Active"

###

- measurement-target: Insulin receptor (Rattus norvegicus, UniProt P15127); further: in other assays of this panel Not Active means under 50% inhibition at 10 µM
- Sequence (P15127 27-759 limits assumed): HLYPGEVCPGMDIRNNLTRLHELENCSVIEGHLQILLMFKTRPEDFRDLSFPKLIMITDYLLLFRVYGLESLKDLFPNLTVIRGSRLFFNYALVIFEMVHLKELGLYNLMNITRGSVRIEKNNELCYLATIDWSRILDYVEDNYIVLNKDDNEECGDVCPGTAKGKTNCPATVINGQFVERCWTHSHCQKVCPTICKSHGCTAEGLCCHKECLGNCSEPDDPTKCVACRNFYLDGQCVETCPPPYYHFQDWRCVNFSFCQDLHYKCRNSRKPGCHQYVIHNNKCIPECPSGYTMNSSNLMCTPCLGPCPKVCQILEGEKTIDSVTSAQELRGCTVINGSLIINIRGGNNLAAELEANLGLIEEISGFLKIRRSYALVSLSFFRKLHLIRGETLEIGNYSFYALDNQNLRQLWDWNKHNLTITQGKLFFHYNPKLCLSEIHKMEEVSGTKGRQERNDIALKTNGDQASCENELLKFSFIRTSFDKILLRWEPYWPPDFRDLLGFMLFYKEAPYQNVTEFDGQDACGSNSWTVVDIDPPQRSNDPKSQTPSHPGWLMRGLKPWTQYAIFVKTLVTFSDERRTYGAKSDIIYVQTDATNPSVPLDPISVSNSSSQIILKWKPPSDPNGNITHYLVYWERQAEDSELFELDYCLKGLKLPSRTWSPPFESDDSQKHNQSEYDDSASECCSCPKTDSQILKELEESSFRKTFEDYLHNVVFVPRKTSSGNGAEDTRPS
- Sequence (P15127 764-1383 limits assumed): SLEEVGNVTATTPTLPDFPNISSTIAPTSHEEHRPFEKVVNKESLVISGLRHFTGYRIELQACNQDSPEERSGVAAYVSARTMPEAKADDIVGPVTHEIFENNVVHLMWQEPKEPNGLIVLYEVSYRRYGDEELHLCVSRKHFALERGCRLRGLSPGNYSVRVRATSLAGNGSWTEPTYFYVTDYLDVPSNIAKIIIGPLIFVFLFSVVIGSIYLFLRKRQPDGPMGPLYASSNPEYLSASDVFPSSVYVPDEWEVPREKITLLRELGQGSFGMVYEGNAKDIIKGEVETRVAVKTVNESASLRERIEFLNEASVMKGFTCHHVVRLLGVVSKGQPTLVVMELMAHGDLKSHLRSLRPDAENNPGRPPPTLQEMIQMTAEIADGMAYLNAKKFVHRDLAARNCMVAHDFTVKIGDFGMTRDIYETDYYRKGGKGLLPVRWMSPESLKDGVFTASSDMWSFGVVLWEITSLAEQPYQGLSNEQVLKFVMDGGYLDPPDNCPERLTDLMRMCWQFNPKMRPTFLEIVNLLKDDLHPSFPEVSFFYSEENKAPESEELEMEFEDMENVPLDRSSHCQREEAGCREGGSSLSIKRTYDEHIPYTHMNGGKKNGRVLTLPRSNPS
- Format: cell membranes, Wistar, Liver, Membrane

- substance: "LEAD (II) ACETATE"
  measurement-target: "Insulin receptor (Rattus norvegicus, UniProt P15127)"
  IC50: "Not Active"
- substance: "LIPOPOLYSACCHARIDE E. COLI O55:B5"
  measurement-target: "Insulin receptor (Rattus norvegicus, UniProt P15127)"
  IC50: "Not Active"
- substance: "CADMIUM ACETATE"
  measurement-target: "Insulin receptor (Rattus norvegicus, UniProt P15127)"
  IC50: "Not Active"
- substance: "SODIUM NITROPRUSSIDE"
  measurement-target: "Insulin receptor (Rattus norvegicus, UniProt P15127)"
  IC50: "Not Active"

###

- measurement-target: UniProtKB P25101
- Sequence (P25101 whole entry): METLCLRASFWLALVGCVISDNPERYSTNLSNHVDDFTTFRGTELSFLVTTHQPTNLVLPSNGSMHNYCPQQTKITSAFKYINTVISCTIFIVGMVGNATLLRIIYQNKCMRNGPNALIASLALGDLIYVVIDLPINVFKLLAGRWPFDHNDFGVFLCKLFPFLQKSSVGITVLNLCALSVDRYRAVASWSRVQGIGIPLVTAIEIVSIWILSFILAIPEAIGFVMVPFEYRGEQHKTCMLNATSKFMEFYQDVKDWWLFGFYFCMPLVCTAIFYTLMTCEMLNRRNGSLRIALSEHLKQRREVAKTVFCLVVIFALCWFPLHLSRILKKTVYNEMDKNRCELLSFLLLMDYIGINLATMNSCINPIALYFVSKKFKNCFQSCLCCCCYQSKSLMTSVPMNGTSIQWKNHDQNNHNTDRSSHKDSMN
- Assay type: cell membranes, CHO-K1, Membrane
- assay-setup: read-out: Ki
measurement-label: pKi
Please report pKi as the negative decimal logarithm of the molar concentration, giving only the number.

stdin: Bench note: what pKi did CCCCc1oc2ccccc2c1C(=O)c1cc(I)c(OCCN(CC)CC)c(I)c1 show?
stdout: 4.79

###

- measurement-notes: DRUGMATRIX: Glutamate, Kainate radioligand binding (ligand: [3H] Kainic acid)
- Format: cell membranes, Rattus norvegicus, Wistar, Brain, Membrane
- assay-setup: Not Active = under 50% inhibition at 10 µM
measurement-label: IC50

- molecule: "CC(C)[C@@]1(NC(=O)[C@@H]2C[C@@H]3c4cccc5[nH]cc(c45)C[C@H]3N(C)C2)O[C@@]2(O)[C@@H]3CCCN3C(=O)[C@H](Cc3ccccc3)N2C1=O.CS(=O)(=O)O [DIHYDROERGOCRISTINE MESYLATE]"
  measurement-label: "IC50"
  result: "Not Active"
- molecule: "Cc1ccc(N(CC2=NCCN2)c2cccc(O)c2)cc1"
  measurement-label: "IC50"
  result: "Not Active"
- molecule: "NC1=NC(=O)C(c2ccccc2)O1 (stereo not drawn)"
  measurement-label: "IC50"
  result: "Not Active"
- molecule: "COc1cc2nc(N3CCN(C(=O)C4COc5ccccc5O4)CC3)nc(N)c2cc1OC (stereo not drawn)"
  measurement-label: "IC50"
  result: "Not Active"
- molecule: "OC(Cn1cncn1)(Cn1cncn1)c1ccc(F)cc1F"
  measurement-label: "IC50"
  result: "Not Active"
- molecule: "Cc1cc(C(C#N)c2ccc(Cl)cc2)c(Cl)cc1NC(=O)c1cc(I)cc(I)c1O (stereo not drawn)"
  measurement-label: "IC50"
  result: "Not Active"
- molecule: "CN(C)CCCN1c2ccccc2Sc2ccccc21"
  measurement-label: "IC50"
  result: "Not Active"

stdin: IC50 lookup needed for CC(C)(C)NCC(O)c1cc(Cl)c(N)c(Cl)c1 (stereo not drawn) , thanks.
stdout: Not Active

###

- measurement-notes: DRUGMATRIX: Nicotinic Acetylcholine radioligand binding (ligand: [125I] Epibatidine)
- Format: cell membranes, Membrane
- assay-setup: imr-32; Not Active = under 50% inhibition at 10 µM
measurement-label: Ki

Sample records with Ki:
- molecule: "Clc1cccc(Cl)c1NC1=NCCN1"
  Ki: "Not Active"
- molecule: "CCCOc1ccccc1-c1nc2nn[nH]c2c(=O)[nH]1"
  Ki: "Not Active"
- molecule: "O=C(O)CCCc1ccc(N(CCCl)CCCl)cc1"
  Ki: "Not Active"
- molecule: "CC1(C)O[C@@H]2C[C@H]3[C@@H]4CCC5=CC(=O)C=C[C@]5(C)[C@@]4(F)[C@@H](O)C[C@]3(C)[C@]2(C(=O)CO)O1 [TRIAMCINOLONE ACETONIDE]"
  Ki: "Not Active"
- molecule: "COc1cc2nc(N3CCN(C(=O)C4COc5ccccc5O4)CC3)nc(N)c2cc1OC (centres undefined)"
  Ki: "Not Active"
- molecule: "CC(C)(C)NCC(O)c1cc(Cl)c(N)c(Cl)c1 (centres undefined)"
  Ki: "Not Active"

stdin: Record request: Ki value, item CNCCCN1c2ccccc2CCc2ccccc21
stdout: Not Active

stdin: Follow-up entry: C[C@]12CC[C@@H]3c4ccc(O)cc4CC[C@H]3[C@@H]1CCC2=O
stdout: Not Active

stdin: Now the molecule C=C(C)C1(O)OC(=O)C=C1OC (centres undefined)
stdout: Not Active

###

Each entry below lists one item and its recorded pKi value.
- measurement-target: Adenosine receptor A3 (Homo sapiens); further: in other assays of this panel Not Active means under 50% inhibition at 10 µM;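 further: radioligand binding assay with AB-MECA serving as the labeled ligand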
- Sequence (P0DMS8 whole entry): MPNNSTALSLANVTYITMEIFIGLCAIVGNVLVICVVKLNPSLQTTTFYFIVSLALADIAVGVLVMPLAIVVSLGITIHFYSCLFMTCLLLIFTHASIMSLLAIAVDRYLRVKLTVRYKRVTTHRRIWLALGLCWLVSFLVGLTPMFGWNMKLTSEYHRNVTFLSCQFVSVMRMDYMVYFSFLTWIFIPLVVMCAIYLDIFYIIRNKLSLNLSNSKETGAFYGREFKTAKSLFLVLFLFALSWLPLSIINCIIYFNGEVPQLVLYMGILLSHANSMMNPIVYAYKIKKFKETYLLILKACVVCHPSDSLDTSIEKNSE
- Format: cell membranes, CHO-K1, Membrane
- assay-setup: read-out: Ki
pKi (log units): -log10 of the concentration in mol/L.

Please review the following examples before continuing.
- molecule: "CC/C(=C(\\c1ccccc1)c1ccc(OCCN(C)C)cc1)c1ccccc1 [TAMOXIFEN]"
  measurement-label: "pKi"
  number: 5.68
- molecule: "Cc1cc(C(C#N)c2ccc(Cl)cc2)c(Cl)cc1NC(=O)c1cc(I)cc(I)c1O (stereo not drawn) [CLOSANTEL]"
  measurement-label: "pKi"
  number: 7.27
- molecule: "CSc1ccc(/C=C2/C(C)=C(CC(=O)O)c3cc(F)ccc32)cc1 [SULINDAC SULFIDE]"
  measurement-label: "pKi"
  number: 5.39
- molecule: "Cc1ccc2cc3c(ccc4ccccc43)c3c2c1CC3 [3-METHYLCHOLANTHRENE]"
  measurement-label: "pKi"
  number: 5.50
- molecule: "O=c1ncn2nc(Sc3ccc(F)cc3F)ccc2c1-c1c(Cl)cccc1Cl [NEFLAMAPIMOD]"
  measurement-label: "pKi"
  number: 5.32
- molecule: "Cc1c(C)c2c(c(C)c1O)CCC(C)(COc1ccc(CC3SC(=O)NC3=O)cc1)O2 (stereo not drawn) [TROGLITAZONE]"
  measurement-label: "pKi"
  number: 5.53
- molecule: "Cc1ccc(-c2cc(C(F)(F)F)nn2-c2ccc(S(N)(=O)=O)cc2)cc1 [CELECOXIB]"
  measurement-label: "pKi"
  number: 4.86

stdin: # input molecule: Nc1nc2nc[nH]c2c(=S)[nH]1 [THIOGUANINE] ; wanted: its pKi
stdout: 4.91

###

- measurement-target: Glycine receptor (Rattus norvegicus, UniProt P22771+P24524+P07727+P20781); further: in other assays of this panel Not Active means under 50% inhibition at 10 µM
- Type: cell membranes, Wistar, Spinal cord, Membrane
*1 amine or outer side, *2 acyl side, *3 side chain or, on linkers, in order; H or OH if unused. Where a SMILES comes first, the peptide text is derived from it. Bridges are numbered along the chain shown (N, C = ends). Roman numbers before positions name the chains, in order. [ ]: non-standard residue; d: D form. Actinocin(1to9) = Cc1c2oc3c(C)ccc(C(=O)[*:2])c3nc-2c(C(=O)[*:1])c(N)c1=O; NMeV = CN[C@H](C(=O)O)C(C)C; Sar = CNCC(=O)O
measurement-label: IC50

Take a look at these entries with their results.
- molecule: "N[C@@H](Cc1ccc(O)c(O)c1)C(=O)O"
  result: "Not Active"
- molecule: "Cc1c(C)c2c(c(C)c1O)CCC(C)(COc1ccc(CC3SC(=O)NC3=O)cc1)O2 (stereo not drawn)"
  result: "Not Active"
- molecule: "C=C(C)C1(O)OC(=O)C=C1OC (stereo not drawn)"
  result: "Not Active"
- molecule: "Cc1nc2n(c(=O)c1CCN1CCC(c3noc4cc(F)ccc34)CC1)CCCC2"
  result: "Not Active"
- molecule: "C[C@]12CCC(=O)C=C1CC[C@@H]1[C@@H]2CC[C@@]2(C)[C@H]1CC[C@]2(C)O"
  result: "Not Active"

stdin: Can you share its IC50? I mean this molecule: CN(C)CCCN1c2ccccc2Sc2ccccc21
stdout: Not Active

stdin: Then what about the molecule C[C@](N)(Cc1ccc(O)c(O)c1)C(=O)O ?
stdout: Not Active

stdin: Thanks! And O=NN(CCCl)C(=O)NC1CCCCC1 ?
stdout: Not Active

stdin: c1ccc(Nc2ccc(Nc3ccccc3)cc2)cc1 ?
stdout: Not Active

stdin: Then what about the molecule CC1(C)O[C@@H]2C[C@H]3[C@@H]4CCC5=CC(=O)CC[C@]5(C)[C@@]4(F)[C@@H](O)C[C@]3(C)[C@]2(C(=O)CCl)O1 [HALCINONIDE] ?
stdout: Not Active

stdin: Quick one: CCCN1C[C@H](CSC)C[C@@H]2c3cccc4[nH]cc(c34)C[C@H]21 [PERGOLIDE]
stdout: Not Active

stdin: Next record, please: NC1=NC(=O)C(c2ccccc2)O1 (stereo not drawn)
stdout: Not Active

stdin: Entry Cc1c2oc3c(C)ccc(C(=O)N[C@@H]4C(=O)N[C@H](C(C)C)C(=O)N5CCC[C@H]5C(=O)N(C)CC(=O)N(C)[C@@H](C(C)C)C(=O)O[C@@H]4C)c3nc-2c(C(=O)N[C@@H]2C(=O)N[C@H](C(C)C)C(=O)N3CCC[C@H]3C(=O)N(C)CC(=O)N(C)[C@@H](C(C)C)C(=O)O[C@@H]2C)c(N)c1=O [DACTINOMYCIN] (I: T[dV]P[Sar][NMeV] / II: T[dV]P[Sar][NMeV]; ester I:1-I:C, II:1-II:C; linker I:N-II:N via Actinocin(1to9)) please
stdout: Not Active

stdin: Would you mind doing Cc1c(O)c(=O)ccn1C as well?
stdout: Not Active

stdin: What do we get for CC1(C)O[C@@H]2C[C@H]3[C@@H]4CCC5=CC(=O)C=C[C@]5(C)[C@@]4(F)[C@@H](O)C[C@]3(C)[C@]2(C(=O)CO)O1 [TRIAMCINOLONE ACETONIDE] ?
stdout: Not Active

stdin: Do the same for CN(C)c1nc(N(C)C)nc(N(C)C)n1 please
stdout: Not Active

stdin: Moving on to the next molecule: CCCCc1nc(Cl)c(CO)n1Cc1ccc(-c2ccccc2-c2nnn[nH]2)cc1
stdout: Not Active

src = ChEMBL document CHEMBL1909046
